- method summary: Hygroscopicity experiment (DVS)
- Assay type: physicochemical
- applied conditions: Cycle 2, target relative humidity 70.0%, 25° C.
endpoint: % percentage of mass change, Desorption (%)
Numbers only, in %.

• CS(=O)(=O)O.N#Cc1cc2n(CC(=O)Nc3ccc(F)cn3)c(=O)c3ccc(C(F)(F)F)nc3n2n1 [Methanesulfonate (crystal form A)] = 0.378
• Cl.N#Cc1cc2n(CC(=O)Nc3ccc(F)cn3)c(=O)c3ccc(C(F)(F)F)nc3n2n1 [Hydrochloride (crystal form A)] = 7.806
• CCS(=O)(=O)O.N#Cc1cc2n(CC(=O)Nc3ccc(F)cn3)c(=O)c3ccc(C(F)(F)F)nc3n2n1 [Ethanesulfonate (crystal form A)] = 0.421

IN: Record request: % percentage of mass change, Desorption value, item N#Cc1cc2n(CC(=O)Nc3ccc(F)cn3)c(=O)c3ccc(C(F)(F)F)nc3n2n1.O=S(=O)(O)O [Sulfate (crystal form B)]
OUT: 0.632

----------
- method summary: Solubility experiment in different media
- Type: physicochemical
- applied conditions: pure water, water, thermodynamic from solid, H2O, room temperature
endpoint: solubility at 24 h (µg/mL)
Give bare numbers, in µg/mL.

IN: Record request: solubility at 24 h value, item CS(=O)(=O)O.N#Cc1cc2n(CC(=O)Nc3ccc(F)cn3)c(=O)c3ccc(C(F)(F)F)nc3n2n1 [Methanesulfonate (crystal form A)]
OUT: 1.9

----------
- method summary: Hygroscopicity experiment (DVS)
- Format: physicochemical
- applied conditions: Cycle 2, target relative humidity 60.0%, 25° C.
- Text: 7.1 Hygroscopicity experiment of crystal forms of different salts of compound 2-(2-cyano-5-oxo-8-(trifluoromethyl)pyrazolo[1,5-a]pyrido[3,2-e]pyrimidin-4(5H)-yl)-N-(5-fluoropyridin-2-yl)acetamide 7.1.1 Experimental objective: To investigate the hygroscopicity of crystal forms of different salts of compound 2-(2-cyano-5-oxo-8-(trifluoromethyl)pyrazolo[1,5-a]pyrido[3,2-e]pyrimidin-4(5H)-yl)-N-(5-fluoropyridin-2-yl)acetamide at different relative humidity, so as to provide a basis for storage. […]
endpoint: % percentage of mass change, Sorption (%)
Answers are plain numbers, in %.

Known results for compounds:
• CCS(=O)(=O)O.N#Cc1cc2n(CC(=O)Nc3ccc(F)cn3)c(=O)c3ccc(C(F)(F)F)nc3n2n1 [Ethanesulfonate (crystal form A)] = 0.295
• N#Cc1cc2n(CC(=O)Nc3ccc(F)cn3)c(=O)c3ccc(C(F)(F)F)nc3n2n1.O=S(=O)(O)O [Sulfate (crystal form B)] = 0.450
• Cl.N#Cc1cc2n(CC(=O)Nc3ccc(F)cn3)c(=O)c3ccc(C(F)(F)F)nc3n2n1 [Hydrochloride (crystal form A)] = 7.492

// moving on: another record for % percentage of mass change, Sorption
IN: Record request: % percentage of mass change, Sorption value, item CS(=O)(=O)O.N#Cc1cc2n(CC(=O)Nc3ccc(F)cn3)c(=O)c3ccc(C(F)(F)F)nc3n2n1 [Methanesulfonate (crystal form A)]
OUT: 0.263

----------
I'd appreciate it if you could supply Human Remaining (%, 60 min) values for the items below.
- method summary: Metabolic stability in liver microsome (human)
- Format: in vitro ADME
- applied conditions: human liver microsome, 60 min
- Description: Test Example 5. Assay of Metabolic Stability in Liver Microsome 1. Experimental objective: The objective of the experiment is to determine the stability of the compounds of the Examples in liver microsome of mouse, rat, dog and human. 2.1 Formulation of the working solution of the compound: Formulation of the working solution of the compound: The stock solution of the compound was added to phosphate buffer, and the final concentration was 20 μM. […]
Numbers only, in %.

Known results for compounds:
- CCc1cc2n(CC(=O)Nc3ccc(F)cn3)c(=O)c3ccc(C(F)(F)F)nc3n2n1 [Example 12]: 113.9
- O=C(Cn1c(=O)c2ccc(C(F)(F)F)nc2n2nccc12)Nc1ccc(F)cn1 [Example 18]: 97.5
- O=C(Cn1c(=O)c2ccc(C(F)(F)F)nc2n2nc(Br)cc12)Nc1ccc(F)cn1 [Example 15]: 100.4

IN: Record request: Human Remaining (%, 60 min) value, item N#Cc1cc2n(CC(=O)Nc3ccc(F)cn3)c(=O)c3ccc(C(F)(F)F)nc3n2n1 [Example 17]
OUT: 101.2
